Origin of values: the RNAGym collection of RNA variant scans (doi:10.1021/acssynbio.7b00057)

B1: Pistol ribozyme (parent)
chain: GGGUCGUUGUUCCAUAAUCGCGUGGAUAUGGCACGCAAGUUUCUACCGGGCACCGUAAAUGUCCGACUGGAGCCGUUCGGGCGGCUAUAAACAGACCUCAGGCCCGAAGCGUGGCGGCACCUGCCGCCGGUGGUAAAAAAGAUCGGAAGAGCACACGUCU

Variants of: B1
test-protocol: aptazyme ON/OFF ratio, guanine; higher = stronger switching; co-transcriptional cleavage with and without guanine
Quick list: aptazyme ON/OFF ratio per entry.

| mutation-key | aptazyme ON/OFF ratio |
| --- | --- |
| U7G G9A U10C U11C C12U C13G | 1.04 |
| U8G U10G C13A | 1.15 |
| U7C U8A G9A U10G C12G C13A | 1.1 |
| G9U U11C C12U | 2.4 |
| U7A G9U U10C U11G C12A C13U | 1.11 |
| U7G U8A U10C C12G | 1.46 |
| U8C G9C U10A U11A C13G | 1.17 |
| U7C U8A G9C U10G U11G C12U C13A | 1.12 |
| G9C U10A U11C C12U C13A | 1.25 |
| U8G G9A U11G C12G | 1.23 |
| U7C U8G U10C C12A C13U | 1.67 |
| U7A U8C U11C C12G | 1.63 |
| U7G U8A G9A U10G U11C | 1.03 |
| U7C G9U U10G U11C | 1.09 |
| U8G G9C U10A C12U C13U | 1.07 |
| U7A U8G G9A U10C U11G C12U C13G | 1.33 |
| U7A U8G G9U U10A C13G | 1.12 |
| U7G U8A G9A U11A C12U C13U | 1.06 |
| U8A G9C U10C U11G C12G C13U | 1.09 |
| U7G U8C G9A U10A U11A C13G | 1.04 |
| U8A G9C U11A C12G C13U | 1.14 |
| U7G U8C U10G U11C C12A | 1.57 |
| U8C G9C U10C C13G | 1.05 |
| U8G G9A U10A C12U | 1.27 |
| U7G U8G G9U U10A C13G | 1.1 |
| U7G U8A G9A U10C C12G C13A | 1.11 |
| U7A G9A U10G U11A C12A C13G | 1.15 |
| U8A G9C U10G U11C C13A | 1.11 |
| U7C G9A U10A U11G C12U C13A | 1.16 |
| U7G U8G U10A U11A C13U | 1.35 |
| U7A U8C G9C U11A C12G C13A | 1.09 |
| U7G U8G U10G U11C C12U C13U | 1.36 |
| U7C U8G U11G C12A C13G | 1.08 |
| U8G G9C U10A C12G C13G | 1.16 |
| U7C U8C G9C C13A | 1.09 |
| U7G U8G G9C U10G C12G | 1.21 |
| G9C C13U | 1.07 |
| U8G G9A U10C C12U | 1.14 |
| U7G U8C G9A U10G U11A C12A | 1.11 |
| U7A U8C G9U U10G U11G C13G | 1.14 |
| U8G G9C U10A U11G C12A C13A | 1.07 |
| U7A U8C G9U U10C U11A C12A C13G | 1.1 |
| U7C U8C G9A U10C C12A | 1.12 |
| U7A U8C G9A U11C C12G C13G | 1.07 |
| U7A U8C U11A C12A | 1.32 |
| U7C G9C U10G U11G C12A | 1.11 |
